Provenance of the data: ChEMBL document CHEMBL1146824

molecular target: Cyclin-dependent kinase 4/cyclin D1 (Homo sapiens, UniProt P11802); experiment: Binding affinity for Cyclin-dependent kinase 4-cyclin D1
Sequence (P11802 whole entry): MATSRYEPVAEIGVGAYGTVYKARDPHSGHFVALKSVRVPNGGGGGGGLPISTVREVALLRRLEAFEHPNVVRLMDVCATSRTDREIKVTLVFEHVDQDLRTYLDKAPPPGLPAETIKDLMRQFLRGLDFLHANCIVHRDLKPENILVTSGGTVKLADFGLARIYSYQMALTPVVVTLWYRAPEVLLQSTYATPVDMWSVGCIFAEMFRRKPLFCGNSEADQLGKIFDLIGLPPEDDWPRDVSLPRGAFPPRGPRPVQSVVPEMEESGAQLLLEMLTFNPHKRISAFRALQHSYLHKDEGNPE
Sequence (P24385 whole entry, further chain): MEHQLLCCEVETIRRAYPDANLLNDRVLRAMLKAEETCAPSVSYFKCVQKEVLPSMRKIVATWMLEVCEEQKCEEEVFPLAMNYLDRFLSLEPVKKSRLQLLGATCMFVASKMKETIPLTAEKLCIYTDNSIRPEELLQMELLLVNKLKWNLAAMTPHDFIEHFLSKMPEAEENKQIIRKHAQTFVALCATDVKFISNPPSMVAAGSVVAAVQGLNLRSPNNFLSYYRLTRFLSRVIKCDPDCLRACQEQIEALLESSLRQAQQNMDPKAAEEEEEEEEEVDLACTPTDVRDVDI
pIC50: −log10 of the molar value.
I would appreciate it if you labelled entries criterion met when pIC50 is 7 or higher, otherwise criterion not met.

Reference set, count: 3
Test whether the molecule CN1CCCN(C(=O)c2ccc(-c3[nH]nc4c3C(=O)c3c(NC(=O)NN5CCOCC5)cccc3-4)s2)CC1 records pIC50 of 7 or higher.
criterion met

Test whether the molecule Cc1nc(C)c(-c2[nH]nc3c2C(=O)c2c(NC(=O)NN4CCOCC4)cccc2-3)s1 records pIC50 of 7 or higher.
criterion not met

Test whether the molecule Cc1cc(-c2n[nH]c3c2C(=O)c2c(NC(=O)NN(C)C)cccc2-3)c(C)s1 records pIC50 of 7 or higher.
criterion not met

Further cases:
Test whether the molecule Cc1nc(C)c(-c2[nH]nc3c2C(=O)c2c(NC(=O)NN4CCN(C)CC4)cccc2-3)s1 records pIC50 of 7 or higher.
criterion met

Test whether the molecule NC1CCN(C(=O)c2ccc(-c3[nH]nc4c3C(=O)c3c(NC(=O)NN5CCOCC5)cccc3-4)s2)C1 (centres undefined) records pIC50 of 7 or higher.
criterion met

Test whether the molecule CCN1CCCN(C(=O)c2ccc(-c3[nH]nc4c3C(=O)c3c(NC(=O)NN5CCOCC5)cccc3-4)s2)CC1 records pIC50 of 7 or higher.
criterion met

Test whether the molecule O=C(Nc1cccc2c1C(=O)c1c(-c3ccc(C(=O)NCCN4CCCCC4)s3)n[nH]c1-2)NN1CCOCC1 records pIC50 of 7 or higher.
criterion met

Test whether the molecule O=C(Nc1cccc2c1C(=O)c1c(-c3ccc(C(=O)N4CCCCC4)s3)n[nH]c1-2)NN1CCOCC1 records pIC50 of 7 or higher.
criterion met

----------
assay: Binding affinity for Cyclin-dependent kinase 4-cyclin E
Recorded metric: IC50 (nM)
Give the quantity in nM, number only.

For this molecule ( CN(C)NC(=O)Nc1cccc2c1C(=O)c1c(-c3ccco3)n[nH]c1-2 ), measured IC50 is 26

Let us move to another entry and its IC50.
For this molecule ( Cc1cc(-c2n[nH]c3c2C(=O)c2c(NC(=O)NN(C)C)cccc2-3)c(C)s1 ), measured IC50 is 26

----------
system: AG1523; test: Inhibition of proliferation AG1523 (human fibroblast) cell line.; format: functional, cell-based
Recorded metric: IC50

Some solved cases for reference:
For this compound ( Cc1nc(C)c(-c2[nH]nc3c2C(=O)c2c(NC(=O)NN4CCN(C)CC4)cccc2-3)s1 ), measured IC50 is > 21 µM

For this compound ( Cc1nc(C)c(-c2[nH]nc3c2C(=O)c2c(NC(=O)NN4CCOCC4)cccc2-3)s1 ), measured IC50 is > 19 µM

Further cases:
For this compound ( CCOC(=O)c1ccc(-c2[nH]nc3c2C(=O)c2c(NC(=O)NN4CCOCC4)cccc2-3)s1 ), measured IC50 is > 17 µM

----------
experiment: Binding affinity for Cyclin-dependent kinase 4-cyclin E
Items are presented alongside their recorded pIC50.
Worth noting: pIC50 values are minus log10 of concentrations stated in mol/L.

Some solved cases for reference:
For this compound ( O=C(Nc1cccc2c1C(=O)c1c(-c3ccc(C(=O)N4CCCCCC4)s3)n[nH]c1-2)NN1CCOCC1 ), measured pIC50 is 7.64

For this compound ( Cc1ccc(-c2n[nH]c3c2C(=O)c2c(NC(=O)NN(C)C)cccc2-3)s1 ), measured pIC50 is 7.60

Further cases:
For this compound ( CCOC(=O)c1ccc(-c2[nH]nc3c2C(=O)c2c(NC(=O)NN(C)C)cccc2-3)s1 ), measured pIC50 is 7.55

----------
test: Binding affinity for Cyclin-dependent kinase 4-cyclin E
Recorded metric: pIC50
Worth noting: pIC50 values are minus log10 of concentrations stated in mol/L.

For this molecule ( COc1ccc(-c2[nH]nc3c2C(=O)c2c(NC(=O)NN(C)C)cccc2-3)s1 ), measured pIC50 is 7.49

For this molecule ( O=C(Nc1cccc2c1C(=O)c1c(-c3ccc(C(=O)N4CCNCC4)s3)n[nH]c1-2)NN1CCOCC1 ), measured pIC50 is 7.42

For this molecule ( CN1CCCN(C(=O)c2ccc(-c3[nH]nc4c3C(=O)c3c(NC(=O)NN5CCOCC5)cccc3-4)s2)CC1 ), measured pIC50 is 7.82

For this molecule ( Cc1cc(-c2n[nH]c3c2C(=O)c2c(NC(=O)NN4CCN(C)CC4)cccc2-3)c(C)s1 ), measured pIC50 is 7.92

For this molecule ( CN(C)C1CCN(C(=O)c2ccc(-c3[nH]nc4c3C(=O)c3c(NC(=O)NN5CCOCC5)cccc3-4)s2)C1 (stereo unspecified) ), measured pIC50 is 7.36

For this molecule ( CN(C)NC(=O)Nc1cccc2c1C(=O)c1c(-c3ccsc3)n[nH]c1-2 ), measured pIC50 is 7.62

For this molecule ( O=C(Nc1cccc2c1C(=O)c1c-2n[nH]c1-c1csc(Cl)c1)NN1CCOCC1 ), measured pIC50 is 8.00

----------
assay: Binding affinity for Cyclin-dependent kinase 4-cyclin E
Recorded metric: IC50 (nM)
Give the quantity in nM, number only.

Some solved cases for reference:
For this compound ( CNC1CCN(C(=O)c2ccc(-c3[nH]nc4c3C(=O)c3c(NC(=O)NN5CCOCC5)cccc3-4)s2)C1 (centres undefined) ), measured IC50 is 11

For this compound ( NC1CCN(C(=O)c2ccc(-c3[nH]nc4c3C(=O)c3c(NC(=O)NN5CCOCC5)cccc3-4)s2)C1 (centres undefined) ), measured IC50 is 39

For this compound ( CN(C)C1CCCN(C(=O)c2ccc(-c3[nH]nc4c3C(=O)c3c(NC(=O)NN5CCOCC5)cccc3-4)s2)C1 (centres undefined) ), measured IC50 is 24

For this compound ( Cc1ccc(-c2[nH]nc3c2C(=O)c2c(NC(=O)NN4CCOCC4)cccc2-3)s1 ), measured IC50 is 10

For this compound ( O=C(Nc1cccc2c1C(=O)c1c(-c3ccc(C(=O)NCCN4CCOCC4)s3)n[nH]c1-2)NN1CCOCC1 ), measured IC50 is 51

Further cases:
For this compound ( CCN1CCCN(C(=O)c2ccc(-c3[nH]nc4c3C(=O)c3c(NC(=O)NN5CCOCC5)cccc3-4)s2)CC1 ), measured IC50 is 14

For this compound ( O=C(Nc1cccc2c1C(=O)c1c(-c3ccc(C(=O)NCCN4CCCCC4)s3)n[nH]c1-2)NN1CCOCC1 ), measured IC50 is 31

For this compound ( CN(C)NC(=O)Nc1cccc2c1C(=O)c1c(-c3cccs3)n[nH]c1-2 ), measured IC50 is 36
